Each entry below lists one item and its recorded polymerase ribozyme fitness (log ratio) value.
B1: TPR 5TU (parent)
chain: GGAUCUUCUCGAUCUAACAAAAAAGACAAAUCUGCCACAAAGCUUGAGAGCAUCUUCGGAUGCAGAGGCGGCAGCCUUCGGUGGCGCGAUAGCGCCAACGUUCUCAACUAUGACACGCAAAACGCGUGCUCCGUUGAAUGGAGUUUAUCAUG

- Variants of: B1
- protocol: polymerase ribozyme fitness, log enrichment relative to wild type (log ratio); higher = more active; in vitro selection for triplet polymerase activity
Fewer inactive variants are shown than the library holds.

{"mutation": "G86U G88C A119C U127A U144G", "polymerase ribozyme fitness (log ratio)": "≤ -4.2"}
{"mutation": "A24U A66G", "polymerase ribozyme fitness (log ratio)": -3.16}
{"mutation": "G67C G83A C123G", "polymerase ribozyme fitness (log ratio)": "≤ -4.2"}
{"mutation": "C93A A142G", "polymerase ribozyme fitness (log ratio)": -2.77}
{"mutation": "U82G A121G", "polymerase ribozyme fitness (log ratio)": -0.49}
{"mutation": "C35A G67U G94U", "polymerase ribozyme fitness (log ratio)": "≤ -4.2"}
{"mutation": "C14A C36U U45C C87U C105A G133U", "polymerase ribozyme fitness (log ratio)": "≤ -4.2"}
{"mutation": "A12G C14G A17G C75U A91G C105U A106G A121U A137U", "polymerase ribozyme fitness (log ratio)": "≤ -4.2"}
{"mutation": "U6A C14A C32U G74A A138C", "polymerase ribozyme fitness (log ratio)": "≤ -4.2"}
{"mutation": "C5A C18G A40U", "polymerase ribozyme fitness (log ratio)": -0.118}
{"mutation": "G25C A64C C96U", "polymerase ribozyme fitness (log ratio)": "≤ -4.2"}
